tested.target: hMC1-R (Homo sapiens)
Construct: expressed in transfected cells; host or cells: HEK-293
protocol.summary: Competitive inhibition binding assay using [I125]-NDP-α-MSH, HEK-293 membranes, recombinant hMC1-R
experimental.conditions: 1 μM compound, human recombinant MC1-R
measure.name: inhibition at 1 µM (%)

Reference set, count: 3
{"compound": "NCCNCCC[C@H]1CN(C(=O)[C@H](N)Cc2ccc(Cl)cc2Cl)[C@H](CC2CCCCC2)CN1C(=O)[C@H](N)Cc1ccc(Cl)cc1Cl [Example 15]", "tested.target": "hMC1-R (Homo sapiens)", "number": 27}
{"compound": "CC(C)C[C@@H]1CN(C(=O)[C@H](N)Cc2ccc3ccccc3c2)[C@@H](CCCCNCCN)CN1C(=O)[C@H](N)Cc1ccc2ccccc2c1 [Example 20]", "tested.target": "hMC1-R (Homo sapiens)", "number": 68}
{"compound": "CC(C)C[C@@H]1CN(C(=O)[C@H](N)Cc2ccc(Cl)cc2Cl)[C@@H](CCCCNCCN)CN1C(=O)[C@H](N)Cc1ccc(Cl)cc1Cl [Example 19]", "tested.target": "hMC1-R (Homo sapiens)", "number": 36}

a = C[C@@H]1CN(C(=O)[C@H](N)Cc2ccc3ccccc3c2)[C@@H](CCCNCCN)CN1C(=O)[C@H](N)Cc1ccc2ccccc2c1 [Example 27]
b = CC(C)C[C@@H]1CN(C[C@H](N)Cc2ccc(Cl)cc2Cl)[C@@H](CCCNCCCCCN)CN1C(=O)Cc1ccc2ccccc2c1 [Example 31]
c = CC(C)C[C@@H]1CN(C[C@@H](Cc2ccc(Cl)cc2Cl)N(C)C)[C@@H](CCCN(C)CCN)CN1C(=O)Cc1ccc2ccccc2c1 [Example 32]
Order by inhibition at 1 µM, ascending. Output spec: labels arranged per the requested ranking.
c, b, a
(c: 25%, b: 36%, a: 62%)

###

tested.target: MC5-R (Homo sapiens)
Construct: expressed in transfected cells; host or cells: HEK-293
protocol.summary: Competitive inhibition binding assay using [I125]-NDP-α-MSH, HEK-293 membranes, recombinant hMC5-R
measure.name: Ki (nM)

Reference set, count: 2
{"molecule": "NCCNCCC[C@H]1CN(C(=O)[C@H](N)Cc2ccc3ccccc3c2)[C@H](CC2CCCCC2)CN1C(=O)[C@H](N)Cc1ccc2ccccc2c1", "Ki [nM]": 30}
{"molecule": "Cc1ccc(C[C@@H](N)CN2C[C@@H](C)N(C(=O)Cc3ccc4ccccc4c3)C[C@@H]2CCCNC2CCNC2)c(C)c1 (stereo partly drawn)", "Ki [nM]": 31}

a = NCCNCCCC[C@H]1CN(C(=O)[C@H](N)Cc2ccc3ccccc3c2)[C@H](CC2CCCCC2)CN1C(=O)[C@H](N)Cc1ccc2ccccc2c1
b = CC(C)C[C@@H]1CN(C(=O)[C@H](N)Cc2ccc3ccccc3c2)[C@@H](CCCCNCCN)CN1C(=O)[C@H](N)Cc1ccc2ccccc2c1
Rank a against b by their Ki values and give the higher one. // return label of chosen record
b

I = CC(C)C[C@@H]1CN(C(=O)[C@H](N)Cc2ccc(Cl)cc2Cl)[C@@H](CCCCNCCN)CN1C(=O)Cc1ccc2ccccc2c1
II = CC(C)C[C@@H]1CN(C(=O)[C@H](N)Cc2ccc(Cl)c(Cl)c2)[C@@H](CCCCNCCN)CN1C(=O)[C@H](N)Cc1ccc(Cl)c(Cl)c1
Given the two records I and II , choose the one whose Ki value is lower. // return label of chosen record
II
(II: 179 nM, I: 301 nM)

###

tested.target: MC1-R (Mus musculus, UniProt Q01727)
Construct: from B-16 mouse melanoma cells (containing endogenous MC1-R); endogenous in cells; host or cells: B-16 mouse melanoma cells (membrane homogenates)
Sequence (Q01727 whole entry): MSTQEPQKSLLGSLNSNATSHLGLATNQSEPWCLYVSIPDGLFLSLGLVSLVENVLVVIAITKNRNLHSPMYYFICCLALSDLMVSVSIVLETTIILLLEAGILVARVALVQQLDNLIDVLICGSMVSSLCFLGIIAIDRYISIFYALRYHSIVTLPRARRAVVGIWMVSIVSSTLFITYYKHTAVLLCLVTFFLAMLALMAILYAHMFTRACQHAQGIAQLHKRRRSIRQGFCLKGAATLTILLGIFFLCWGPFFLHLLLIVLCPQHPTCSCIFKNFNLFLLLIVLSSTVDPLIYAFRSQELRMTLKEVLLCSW
protocol.summary: Competitive inhibition binding assay using [I125]-NDP-α-MSH, B-16 mouse melanoma cell membranes
experimental.conditions: B-16 mouse melanoma cells
measure.name: Ki (nM)

Reference set, count: 3
{"molecule": "Cc1ccc(C[C@@H](N)CN2C[C@@H](C)N(C(=O)Cc3ccc4ccccc4c3)C[C@@H]2CCCNCCN)c(C)c1", "tested.target": "MC1-R (Mus musculus, UniProt Q01727)", "Ki / nM": 660}
{"molecule": "CC(C)C[C@@H]1CN(C[C@H](N)Cc2ccc(Cl)cc2Cl)[C@@H](CCCCNCCN)CN1C(=O)Cc1ccc2ccccc2c1", "tested.target": "MC1-R (Mus musculus, UniProt Q01727)", "Ki / nM": 558}
{"molecule": "Cc1ccc(C[C@@H](N)CN2C[C@@H](C)N(C(=O)Cc3ccc4ccccc4c3)C[C@@H]2CCCNC2CCNC2)c(C)c1 (some centres unmarked)", "tested.target": "MC1-R (Mus musculus, UniProt Q01727)", "Ki / nM": 685}

1 = Cc1ccc(C[C@@H](N)CN2C[C@@H](C)N(C(=O)Cc3ccc4ccccc4c3)C[C@@H]2CCCNC2CCCCC2N)c(C)c1 (some centres unmarked)
2 = CC(C)C[C@@H]1CN(C(=O)[C@H](N)Cc2ccc(Cl)cc2Cl)[C@@H](CCCCNCCN)CN1C(=O)Cc1ccc2ccccc2c1
Rank 1 against 2 by their Ki values and give the higher one. // return label of chosen record
1
(1: 580 nM, 2: 102 nM)

###

tested.target: hMC1-R (Homo sapiens, UniProt Q01726)
Construct: expressed in transfected cells; host or cells: HEK-293
Sequence (Q01726 whole entry): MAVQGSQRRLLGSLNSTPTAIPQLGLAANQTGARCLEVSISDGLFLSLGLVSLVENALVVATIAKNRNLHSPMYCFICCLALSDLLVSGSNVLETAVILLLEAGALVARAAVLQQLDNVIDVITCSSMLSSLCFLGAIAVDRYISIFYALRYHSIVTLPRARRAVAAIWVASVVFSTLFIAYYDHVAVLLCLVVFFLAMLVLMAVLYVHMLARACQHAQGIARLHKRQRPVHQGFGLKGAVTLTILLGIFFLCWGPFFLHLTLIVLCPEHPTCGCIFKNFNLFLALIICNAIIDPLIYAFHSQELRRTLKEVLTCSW
protocol.summary: Competitive inhibition binding assay using [I125]-NDP-α-MSH, HEK-293 membranes, recombinant hMC1-R
experimental.conditions: 1 μM compound, human recombinant MC1-R
measure.name: inhibition at 1 µM (%)

{"compound": "Cc1ccc(C[C@@H](N)CN2C[C@@H](C)N(C(=O)Cc3ccc4ccccc4c3)C[C@@H]2Cc2ccc(NCCN)cc2)c(C)c1 [Example 11]", "inhibition at 1 µM, %": 3}

1 = CC(C)C[C@@H]1CN(C(=O)[C@H](N)Cc2ccc(Cl)cc2Cl)[C@@H](CCCNCCN)CN1C(=O)[C@H](N)Cc1ccc(Cl)cc1Cl [Example 12]
2 = C[C@@H]1CN(C(=O)[C@H](N)Cc2ccc(Cl)cc2Cl)[C@@H](CCCNCCN)CN1C(=O)[C@H](N)Cc1ccc(Cl)cc1Cl [Example 25]
Given the two records 1 and 2 , choose the one whose inhibition at 1 µM value is lower. // return label of chosen record
1
(1: 23%, 2: 67%)

###

tested.target: hMC1-R (Homo sapiens)
Construct: expressed in transfected cells; host or cells: HEK-293
protocol.summary: Competitive inhibition binding assay using [I125]-NDP-α-MSH, HEK-293 membranes, recombinant hMC1-R
experimental.conditions: human recombinant MC1-R
measure.name: Ki (nM)

{"substance.smiles": "CC(C)C[C@@H]1CN(C(=O)[C@H](N)Cc2ccc(Cl)c(Cl)c2)[C@@H](CCCCNCCN)CN1C(=O)[C@H](N)Cc1ccc(Cl)c(Cl)c1", "tested.target": "hMC1-R (Homo sapiens)", "result.units": "nM", "Ki": 116}

1 = CC(C)C[C@@H]1CN(C(=O)[C@H](N)Cc2ccc(Cl)cc2Cl)[C@@H](CCCNCCN)CN1C(=O)[C@H](N)Cc1ccc(Cl)cc1Cl
2 = Cc1ccc(C[C@@H](N)C(=O)N2C[C@H](CCCCNCCN)N(C(=O)[C@H](N)Cc3ccc(C)cc3C)C[C@H]2CC(C)C)c(C)c1
Rank 1 against 2 by their Ki values and give the higher one. // return label of chosen record
2
(2: 567 nM, 1: 309 nM)

###

tested.target: MC5-R (Homo sapiens, UniProt P33032)
Construct: expressed in transfected cells; host or cells: HEK-293
Sequence (P33032 whole entry): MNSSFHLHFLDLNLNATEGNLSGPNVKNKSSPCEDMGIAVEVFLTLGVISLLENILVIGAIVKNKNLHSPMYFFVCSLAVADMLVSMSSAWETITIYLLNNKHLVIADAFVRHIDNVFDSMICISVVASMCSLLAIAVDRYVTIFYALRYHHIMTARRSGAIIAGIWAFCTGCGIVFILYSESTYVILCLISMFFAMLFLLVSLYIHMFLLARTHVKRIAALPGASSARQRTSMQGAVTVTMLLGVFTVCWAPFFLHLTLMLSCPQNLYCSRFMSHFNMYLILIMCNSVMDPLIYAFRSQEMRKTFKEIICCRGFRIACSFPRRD
protocol.summary: Competitive inhibition binding assay using [I125]-NDP-α-MSH, HEK-293 membranes, recombinant hMC5-R
Method: A competitive inhibition binding assay was performed using membrane homogenates prepared from HEK-293 cells that express recombinant hMC4-R, hMC3-R, or hMC5-R, and from B-16 mouse melanoma cells (containing endogenous MC1-R). […] Filters were dried and counted in a gamma counter for bound radioactivity. […] Maximal specific binding (100%) was defined as the difference in radioactivity (cpm) bound to cell membranes in the absence and presence of 1 μM NDP-α-MSH. […]
measure.name: Ki (nM)

Reference set, count: 2
{"substance.smiles": "CC(C)C[C@@H]1CN(C(=O)[C@H](N)Cc2ccc(Cl)cc2Cl)[C@@H](CCCCNCCN)CN1C(=O)[C@H](N)Cc1ccc(Cl)cc1Cl", "Ki / nM": 296}
{"substance.smiles": "CC(C)C[C@@H]1CN(C[C@H](N)Cc2ccc(Cl)cc2Cl)[C@@H](CCCNCCN)CN1C(=O)Cc1ccc2ccccc2c1", "Ki / nM": 188}

A = Cc1ccc(C[C@@H](N)C(=O)N2C[C@H](CCCCNCCN)N(C(=O)[C@H](N)Cc3ccc(C)cc3C)C[C@H]2CC(C)C)c(C)c1
B = CC(C)C[C@@H]1CN(C[C@H](N)Cc2ccc(Cl)cc2Cl)[C@@H](CCCCNCCN)CN1C(=O)Cc1ccc2ccccc2c1
Given the two records A and B , choose the one whose Ki value is lower. // return label of chosen record
B

Numbers sourced from patent US7968548B2.
